# target_or_test_system: T1, recombinant soluble human TREM2 protein (human TREM2 ECD-FlagHis) (human, UniProt Q9NZC2 19-174)
# T1 sequence: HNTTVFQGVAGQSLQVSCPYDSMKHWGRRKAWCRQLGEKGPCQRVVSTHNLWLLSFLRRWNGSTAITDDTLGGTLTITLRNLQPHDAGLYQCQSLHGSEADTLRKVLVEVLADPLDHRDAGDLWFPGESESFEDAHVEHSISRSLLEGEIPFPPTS
# test_method_notes: Octet BLI binning; competitor: load Ab 25F12
measurement_label: sandwich binding signal

| binder | measurement_label | value_measured |
| --- | --- | --- |
| 4G10 (antibody, human IgG2, V domains shown, human IgG2 from hybridoma) VH: EVQLVQSGAEVKKPGESLKISCKGSGYSFPSYWIAWVRQMPGKGLEWMGIIYPGDSDTRYSPSFQGQVTISADKSISTAFLKWSSLKASDTAMYFCARQGIEVTGTGGLDVWGQGTTVTVSS VL: DIQMTQSPSSLSASVGDRVTITCRASQGIRNDLGWYQQKPGNAPKRLIYAASSLPSGVPSRFSGSGSGPEFTLTISSLQPEDFATYYCLQHNSYPWTFGQGTKVEIT | sandwich binding signal | 0.199 |
| 32E3 (antibody, human IgG2, V domains shown, human IgG2 from hybridoma) VH: EVQLVQSGAEVKKPGESLKISCKGSGYSFTSYWIGWVRQMPGKGLEWMGIIYPGDSDTRYSPSFQGQVTISADKSISTAYLQWSTLKASDTAIYYCARHDIIPAAPGAFDIWGQGTMVTVSS VL: EFVLTQSPGTLSLSPGERATLSCRASQIISSNYLAWYQQKPGQAPRLLIYSASSRATGIPDRFSGSGSGTDFTLTISRLEPEDFAVYYCQQFDSSPITFGRGTRLDIK | sandwich binding signal | 0.154 |
| 10E3 (antibody, human IgG2, V domains shown, human IgG2 from hybridoma) VH: EVQLVQSGAEVKKPGESLMISCKGSGYSFTNYWIGWVRQMPGKGLEWMGIIYPGDSDTRYSPSFQGQVTISADKSISTAYLQWSSLKASDTAMYFCARRRQGIWGDALDIWGQGTLVTVSS VL: EIVMTQSPATLSVSPGERATLSCRASQSVSSNLAWFQQKPGQAPRLLIYGASTRATGIPARFSVSGSGTEFTLTISSLQSEDFAFYYCLQDNNWPPTFGPGTKVDIK | sandwich binding signal | 0.273 |
